- System: giant foxtail
- experimentalDetails: Test B pre/postemergence giant foxtail
- Assay type: in vivo, Setaria faberii
- experimentalSetup: Postemergence, Rate 125 g/ha; scale 0 to 10, 0 is no effect, 10 is complete control
- Protocol: […] At the same time, these crop and weed species were also treated with postemergence applications of test chemicals formulated in the same manner. […] Treated plants and controls were maintained in a greenhouse for twelve to sixteen days, after which all species were compared to controls and visually evaluated. […]
Labelling field: enter Satisfied if recorded Giant foxtail plant response rating is less than 7. Enter Not satisfied if it equals or exceeds that cut-off.

Below, 5 compounds whose answers are already recorded.
- compound: "CC(C)N(C(=O)n1oc(=O)n(CCC(F)=C(F)F)c1=O)c1ccccc1 [Compound 566]"
  answerLabel: "Not satisfied"
- compound: "CC(Cl)=CCn1c(=O)on(C(=O)N(c2ccc(F)cc2F)C(C)C)c1=O [Compound 514]"
  answerLabel: "Not satisfied"
- compound: "Cc1noc(C)c1Cn1c(=O)on(C(=O)N(c2ccccc2)C(C)C)c1=O [Compound 569]"
  answerLabel: "Satisfied"
- compound: "CC(C)N(C(=O)n1oc(=O)n(C(C)C(=O)c2ccccc2)c1=O)c1ccccc1 (stereo not shown) [Compound 570]"
  answerLabel: "Satisfied"
- compound: "CC(C)N(C(=O)n1oc(=O)n(C(C)C(=O)N(C)C)c1=O)c1ccc(F)cc1F (stereo not shown) [Compound 481]"
  answerLabel: "Satisfied"

Request: I'd appreciate it if you could check whether CC(C)N(C(=O)n1oc(=O)n(CC2OCCO2)c1=O)c1ccc(F)cc1F [Compound 501] has Giant foxtail plant response rating smaller than 7.
Response: Not satisfied

---

- Tested on: bedstraw
- experimentalDetails: Test B pre/postemergence bedstraw
- Type: in vivo, Galium aparine
- experimentalSetup: Rate 62 g/ha, Postemergence; scale of 0 to 10 where 0 is no effect and 10 is complete control
Below: a set of entries, each annotated with reported Bedstraw plant response rating.
Answer field: number only, no words.

Here's what some known entries look like.
- givenSmiles: "Cc1nsc(C)c1-n1c(=O)on(C(=O)N(c2ccc(Cl)cc2)C(C)C)c1=O"
  Bedstraw plant response rating: 0
- givenSmiles: "CC(C)N(C(=O)n1oc(=O)n([C@H](C)c2ccccc2)c1=O)c1ccc(F)cc1F"
  Bedstraw plant response rating: 0
- givenSmiles: "CON=C(Cn1c(=O)on(C(=O)N(c2ccc(F)cc2)C(C)C)c1=O)C(F)(F)F"
  Bedstraw plant response rating: 7
- givenSmiles: "CC(C)N(C(=O)n1oc(=O)n(C2CCCCCC2)c1=O)c1ccc(F)cc1F"
  Bedstraw plant response rating: 4
- givenSmiles: "Cc1cccc(C(C)(C)C)c1-n1c(=O)on(C(=O)N(c2ccc(F)cc2)C(C)C)c1=O"
  Bedstraw plant response rating: 0
- givenSmiles: "CC(C)N(C(=O)n1oc(=O)n(CC#N)c1=O)c1ccccc1"
  Bedstraw plant response rating: 0
- givenSmiles: "Cc1ccccc1N(C(=O)n1oc(=O)n(-c2ccccc2C)c1=O)C(C)C"
  Bedstraw plant response rating: 0
- givenSmiles: "CC(C)N(C(=O)n1oc(=O)n([C@@H](C)c2ccccc2)c1=O)c1ccccc1"
  Bedstraw plant response rating: 3

Request: State its Bedstraw plant response rating for this compound: `CC(C)N(C(=O)n1oc(=O)n(C2CC2)c1=O)c1ccc(F)cc1`
Response: 2

Request: State its Bedstraw plant response rating for this compound: `Cc1ccccc1-n1c(=O)on(C(=O)N(c2ccc(F)cc2)C2CCC2)c1=O`
Response: 0

Request: State its Bedstraw plant response rating for this compound: `CC(=O)OCCCCn1c(=O)on(C(=O)N(c2ccc(F)cc2)C(C)C)c1=O`
Response: 4

Request: State its Bedstraw plant response rating for this compound: `CCN(CC)C(=O)n1oc(=O)n(-c2ccccc2C)c1=O`
Response: 0

Request: State its Bedstraw plant response rating for this compound: `CC(C)N(C(=O)n1oc(=O)n(-c2cccnc2)c1=O)c1ccc(F)cc1`
Response: 0
